Reported AUC values are given for each entry in this list.
# run-description: in vivo
# experimental-parameters: male, CD-1, mouse, in vivo, 1 mg/kg
Number first, unit second: that is the form wanted.

Please review the following examples before continuing.
compound: CC(C)N1CC2(C1)Oc1ccc(C(=O)NC[C@H](O)CN3CCc4ccccc4C3)cc1NC2=O
endpoint-result: 0.336 µM·h

compound: O=C(NC[C@H](O)CN1CCc2ccccc2C1)c1ccc2c(c1)NC(=O)C1(CC(O)C1)O2 (stereo partly drawn)
endpoint-result: 0.545 µM·h

Please turn your attention to the following entry.
Query: So what does the record say about AUC for O=C(NC[C@H](O)CN1CCc2ccccc2C1)c1ccc2c(c1)NC(=O)C1(CN(CC(F)(F)F)C1)O2 ?
Response: 0.785 µM·h

###

# study-system: PRMT5 enzyme (Homo sapiens (Human), UniProt O14744)
# Sequence (O14744 whole entry): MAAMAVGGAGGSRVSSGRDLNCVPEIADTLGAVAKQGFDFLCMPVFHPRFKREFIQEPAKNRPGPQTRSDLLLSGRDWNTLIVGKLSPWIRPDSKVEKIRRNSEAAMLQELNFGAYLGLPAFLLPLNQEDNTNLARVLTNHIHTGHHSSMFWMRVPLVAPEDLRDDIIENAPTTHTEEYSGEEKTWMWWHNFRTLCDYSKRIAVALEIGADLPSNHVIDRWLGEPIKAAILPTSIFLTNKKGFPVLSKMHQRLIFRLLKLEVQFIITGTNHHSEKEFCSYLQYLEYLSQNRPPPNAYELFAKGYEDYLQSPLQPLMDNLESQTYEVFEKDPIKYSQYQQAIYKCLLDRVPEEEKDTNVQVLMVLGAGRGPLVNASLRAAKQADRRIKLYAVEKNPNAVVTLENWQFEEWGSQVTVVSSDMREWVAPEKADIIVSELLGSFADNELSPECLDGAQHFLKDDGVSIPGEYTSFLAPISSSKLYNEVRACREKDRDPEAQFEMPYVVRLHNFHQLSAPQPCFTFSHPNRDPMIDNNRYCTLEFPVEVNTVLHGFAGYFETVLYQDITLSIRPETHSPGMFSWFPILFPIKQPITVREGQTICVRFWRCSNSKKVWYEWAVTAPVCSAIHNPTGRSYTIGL
# Sequence (Q9BQA1 whole entry partner): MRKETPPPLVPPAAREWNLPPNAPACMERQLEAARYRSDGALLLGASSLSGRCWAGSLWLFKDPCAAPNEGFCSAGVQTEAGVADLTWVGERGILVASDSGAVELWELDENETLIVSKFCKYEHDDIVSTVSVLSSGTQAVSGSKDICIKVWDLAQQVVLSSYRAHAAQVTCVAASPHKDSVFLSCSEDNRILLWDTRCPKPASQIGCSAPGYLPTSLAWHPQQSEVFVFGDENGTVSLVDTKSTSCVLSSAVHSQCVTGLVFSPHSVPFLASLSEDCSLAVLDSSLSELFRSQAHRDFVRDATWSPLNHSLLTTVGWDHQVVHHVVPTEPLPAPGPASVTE
# run-description: PRMT5 enzyme inhibitory activity assay (LANCE Ultra TR-FRET)
# Format: biochemical
# Protocol: Experimental objective: To test the inhibitory effect of compounds on PRMT5 enzyme activity Experimental materials: PRMT5 enzyme The plate was incubated at 25° C. for 30 min, then added with substrate, and reacted at 25° C. for 90 min. After 90 min, the detection reagent was added to the 384-well plate using PerkinElmer LANCE Ultra TR-FRET standard method to combine with the enzyme-substrate reaction product. […]
Listed here: items and their measured IC50.
// return numeric value only (unit: nM, not printed)

Solved cases (3 shown):
molecule: COc1cc2c(cc1C(=O)NC[C@H](O)CN1CCc3ccccc3C1)NC(=O)C1(CC1)O2
observed-property: IC50
endpoint-result: 42
//
molecule: C[C@H](NC(=O)c1cnc2c(c1)NC(=O)C1(CC1)O2)[C@H](O)CN1CCc2ccccc2C1 [Compound 46a]
observed-property: IC50
endpoint-result: 58
//
molecule: O=C(NC[C@H](O)CN1CCc2ccccc2C1)c1ccc2c(c1)NC(=O)C1(CCCCC1)O2
observed-property: IC50
endpoint-result: 18

Query: Please give the measured IC50 for this molecule: O=C(NC[C@H](O)CN1CCc2ccccc2C1)c1ccc2c(c1)NC(=O)C1(CS(=O)(=O)C1)O2
Response: 8
